- Method Description: Maltol shielding: absorbance at 410 nm, chelators, stainless steel 316
- Format: physicochemical
- Reported Conditions: chelator Concentration (%) 3; 0.5% solution of 90% Maltol and 10% Polyquaternium-80 in demineralized water; stainless steel 316 chip 12 hr
Property Label: absorbance at 410 nm
No unit in the answer, please; the number alone is enough.

Known absorbance at 410 nm results, listed for orientation:
Compound: O=C(O)CCN(CC(=O)O)CC(=O)O
absorbance at 410 nm: 0.124
//
Compound: CSCC[C@H](N)C(=O)O
absorbance at 410 nm: 0.102

Now turn to the next compound.
## Input I am curious: what absorbance at 410 nm value has been reported for O=C1O[C@H]([C@@H](O)CO)C(O)=C1O ?
## Output 0.155

----------
- Method Description: Maltol shielding: absorbance at 410 nm, chelators, stainless steel 316
- Format: physicochemical
- Reported Conditions: chelator Concentration (%) 0.5; 0.5% solution of 90% Maltol and 10% Polyquaternium-80 in demineralized water; stainless steel 316 chip 12 hr
Lab note: cut-off is 0.07. Strictly less in absorbance at 410 nm is Criterion met. Exactly 0.07 or more is Criterion not met.

Please review the following examples before continuing.
Compound: COc1cc(C(=O)[O-])ccc1O.[Na+] [Sodium vanillate]
Group: Criterion not met

Compound: COc1cc(C=O)ccc1O
Group: Criterion met

Compound: O=C([O-])CN(CCN(CC(=O)O)CC(=O)O)CC(=O)[O-].[Na+].[Na+] [Disodium EDTA]
Group: Criterion met

Compound: O=C(O)CCN(CC(=O)O)CC(=O)O
Group: Criterion not met

Compound: O=C([O-])[C@H](O)[C@@H](O)[C@H](O)[C@H](O)CO.[Na+] [Sodium gluconate]
Group: Criterion met

Compound: O=C1O[C@H]([C@@H](O)CO)C(O)=C1O
Group: Criterion not met

Consider the record given below.
## Input Record CSCC[C@H](N)C(=O)O : is its absorbance at 410 nm strictly below 0.07?
## Output Criterion not met

----------
- Method Description: Maltol shielding: absorbance at 410 nm, chelators, stainless steel 316
- Assay type: physicochemical
- Reported Conditions: chelator Concentration (%) 2; 0.5% solution of 90% Maltol and 10% Polyquaternium-80 in demineralized water; stainless steel 316 chip 12 hr
Label YES when absorbance at 410 nm is at or above 0.1; anything below gets NO.

Use the examples below as a reference point.
Compound: O=C([O-])CN(CCN(CC(=O)O)CC(=O)O)CC(=O)[O-].[Na+].[Na+] [Disodium EDTA]
Group: NO

Compound: COc1cc(C=O)ccc1O [Vanillin]
Group: NO

Compound: CSCC[C@H](N)C(=O)O [L-Methionine]
Group: YES

## Input Determine whether measured absorbance at 410 nm meets or exceeds 0.1 for O=C(O)CCN(CC(=O)O)CC(=O)O [Beta Alanine diAcetic acid]
## Output NO

## Input Determine whether measured absorbance at 410 nm meets or exceeds 0.1 for O=C([O-])[C@H](O)[C@@H](O)[C@H](O)[C@H](O)CO.[Na+] [Sodium gluconate]
## Output NO

## Input Could you tell me if the measured absorbance at 410 nm of O=C1O[C@H]([C@@H](O)CO)C(O)=C1O [Ascorbic acid] reaches 0.1 or more?
## Output YES

## Input # check: absorbance at 410 nm of COc1cc(C(=O)[O-])ccc1O.[Na+] [Sodium vanillate] is greater than or equal to 0.1
## Output YES

----------
- Method Description: Maltol shielding: absorbance at 410 nm, chelators, stainless steel 316
- Assay type: physicochemical
- Reported Conditions: chelator Concentration (%) 4; 0.5% solution of 90% Maltol and 10% Polyquaternium-80 in demineralized water; stainless steel 316 chip 12 hr
Outcome: yes (1) for absorbance at 410 nm of at least 0.1; no (0) for anything lower.

Molecule: O=C(O)CCN(CC(=O)O)CC(=O)O [Beta Alanine diAcetic acid]
Group: no (0)
--
Molecule: COc1cc(C=O)ccc1O [Vanillin]
Group: yes (1)
--
Molecule: O=C([O-])CN(CCN(CC(=O)O)CC(=O)O)CC(=O)[O-].[Na+].[Na+] [Disodium EDTA]
Group: no (0)
--
Molecule: O=C([O-])[C@H](O)[C@@H](O)[C@H](O)[C@H](O)CO.[Na+] [Sodium gluconate]
Group: no (0)
--
Molecule: COc1cc(C(=O)[O-])ccc1O.[Na+] [Sodium vanillate]
Group: no (0)

Now consider the entry below.
## Input Reported absorbance at 410 nm at or above 0.1? CSCC[C@H](N)C(=O)O [L-Methionine]
## Output yes (1)

----------
- Method Description: Maltol shielding: absorbance at 410 nm, chelators, stainless steel 316
- Type: physicochemical
- Reported Conditions: chelator Concentration (%) 5; 0.5% solution of 90% Maltol and 10% Polyquaternium-80 in demineralized water; stainless steel 316 chip 12 hr
Property Label: absorbance at 410 nm
Respond with the number and no other words.

Consider the following illustrative entries.
Molecule: COc1cc(C(=O)[O-])ccc1O.[Na+] [Sodium vanillate]
absorbance at 410 nm: 0.12

Molecule: O=C([O-])CN(CCN(CC(=O)O)CC(=O)O)CC(=O)[O-].[Na+].[Na+] [Disodium EDTA]
absorbance at 410 nm: 0

Molecule: COc1cc(C=O)ccc1O [Vanillin]
absorbance at 410 nm: 0.048

Molecule: O=C([O-])[C@H](O)[C@@H](O)[C@H](O)[C@H](O)CO.[Na+] [Sodium gluconate]
absorbance at 410 nm: 0.006

Molecule: O=C(O)CCN(CC(=O)O)CC(=O)O [Beta Alanine diAcetic acid]
absorbance at 410 nm: 0.098

Molecule: CSCC[C@H](N)C(=O)O [L-Methionine]
absorbance at 410 nm: 0.096

## Input What value of absorbance at 410 nm has been reported for the following molecule? O=C1O[C@H]([C@@H](O)CO)C(O)=C1O [Ascorbic acid]
## Output 0.06

----------
In this section, each of the compounds is paired with its reported absorbance at 410 nm.
- Method Description: Maltol shielding: absorbance at 410 nm, chelators, stainless steel 316
- Format: physicochemical
- Reported Conditions: chelator Concentration (%) 1; 0.5% solution of 90% Maltol and 10% Polyquaternium-80 in demineralized water; stainless steel 316 chip 12 hr
Quick one: just the number, no unit, thanks!

Example compounds with recorded absorbance at 410 nm:
Compound: O=C1O[C@H]([C@@H](O)CO)C(O)=C1O [Ascorbic acid]
absorbance at 410 nm: 0.162

Compound: O=C([O-])CN(CCN(CC(=O)O)CC(=O)O)CC(=O)[O-].[Na+].[Na+] [Disodium EDTA]
absorbance at 410 nm: 0.009

Compound: CSCC[C@H](N)C(=O)O [L-Methionine]
absorbance at 410 nm: 0.391

Compound: COc1cc(C=O)ccc1O [Vanillin]
absorbance at 410 nm: 0.053

## Input Which absorbance at 410 nm is reported for this compound? O=C(O)CCN(CC(=O)O)CC(=O)O [Beta Alanine diAcetic acid]
## Output 0.039

## Input State the recorded absorbance at 410 nm for this entry: O=C([O-])[C@H](O)[C@@H](O)[C@H](O)[C@H](O)CO.[Na+] [Sodium gluconate]
## Output 0.04

## Input Returns the measured absorbance at 410 nm for the input compound. Input: COc1cc(C(=O)[O-])ccc1O.[Na+] [Sodium vanillate]
## Output 0.044

----------
- Method Description: Maltol shielding: absorbance at 410 nm, chelators, stainless steel 316
- Assay type: physicochemical
- Reported Conditions: chelator Concentration (%) 3; 0.5% solution of 90% Maltol and 10% Polyquaternium-80 in demineralized water; stainless steel 316 chip 12 hr
absorbance at 410 nm values by entry

Examples with answers:
Molecule: O=C([O-])[C@H](O)[C@@H](O)[C@H](O)[C@H](O)CO.[Na+] [Sodium gluconate]
Property Label: absorbance at 410 nm
Value Observed: 0.045

Molecule: COc1cc(C(=O)[O-])ccc1O.[Na+] [Sodium vanillate]
Property Label: absorbance at 410 nm
Value Observed: 0.226

Molecule: COc1cc(C=O)ccc1O
Property Label: absorbance at 410 nm
Value Observed: 0.05

--- query ---
## Input Fill in: absorbance at 410 nm of O=C([O-])CN(CCN(CC(=O)O)CC(=O)O)CC(=O)[O-].[Na+].[Na+] [Disodium EDTA] is ___
## Output 0.002
